// provenance: the supplement of paper PMC10567573

B1: RAD51 (parent)
chain: RFLRMLLRLADEFGVAVVITNQVV

Variants of: B1
test_summary: protein stability index of a GFP-peptide fusion (GPS, HEK-293T) (PSI 1-6); higher = more stable;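 further: lentivirally expressed fusions sorted by FACS into six bins by GFP to DsRed ratio, PSI derived from sequencing read proportions per bin multiplied by bin number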
test_settings: c terminus: a fixed tail appended
Measured protein stability index, listed per entry for reference.
Just the number, please, no unit attached.

Challenge: Quick one: protein stability index for `V23F` ?
Response given: 3.02

Challenge: Can you share its protein stability index? I mean this variant: `V15Y`
Response given: 1.8

Challenge: I'd like to know its protein stability index. The variant in question is `A16H`
Response given: 3.12

Challenge: What does the data say about its protein stability index? Entry: `E12G`
Response given: 1.3

More entries:
Challenge: Look up protein stability index: `F13W`
Response given: 3.5

Challenge: What value of protein stability index has been reported for the following variant? `A10D`
Response given: 1.97

Challenge: If you can, please state the reported protein stability index value of `E12M` .
Response given: 2.33

Challenge: Name the reported protein stability index value associated with the variant `G14H`
Response given: 1.82

Challenge: Reported protein stability index for `V18Q` : what is it?
Response given: 2.87

Challenge: Which protein stability index value belongs to `L3I` ?
Response given: 1.35

Challenge: Quick one: protein stability index of `V17W` ?
Response given: 2.41

Challenge: Bench note: what protein stability index did `R4F` show?
Response given: 2.58

Challenge: Can you share its protein stability index? I mean this variant: `L3N`
Response given: 3.69

Challenge: Data request, read-out protein stability index, for `L9N`
Response given: 2.37

Challenge: I would be grateful if you could share the reported protein stability index for `Q22S` .
Response given: 2.47

Challenge: // query protein stability index value for entry `L7C`
Response given: 2.54

Challenge: protein stability index for `R1Y` ?
Response given: 2.8

Challenge: Reported protein stability index, variant `E12P` : ____
Response given: 2.01

Challenge: For `Q22M` , what is its reported protein stability index?
Response given: 1.65

Challenge: Look at this variant and give its reported protein stability index. `R4V`
Response given: 1.91

Challenge: Consider the variant shown here: `L3C` What is its recorded protein stability index?
Response given: 1.78

Challenge: Entry `V23H` : reported protein stability index = ?
Response given: 2.07

Challenge: Name the recorded protein stability index for `T20S` .
Response given: 3.06

Challenge: Can you share its protein stability index? I mean this variant: `M5E`
Response given: 2.43

Challenge: Would you mind telling me what protein stability index value was observed for `I19G` ?
Response given: 1.58

Challenge: Suppose we examine the variant `V18W` ; what protein stability index value has been reported?
Response given: 2.75

Challenge: Can you share its protein stability index? I mean this variant: `A10K`
Response given: 2.9

Challenge: Which protein stability index is reported for this variant? `I19V`
Response given: 1.63

Challenge: For `M5L` , what is its reported protein stability index?
Response given: 2.13

Challenge: Entry under review: `L9D` . Reported protein stability index?
Response given: 2.1

Challenge: # query: protein stability index of entry `L3D`
Response given: 2.04
